# assay: Pro-drug induced cell death, Trypan blue cell viability assay, control cells
# Format: cell-based
# testParameters: human, HEK293 or HEK CMV-EYFP cells (control cells); any concentration (10 nM to 10 μM), 3 or 4 days; read-out: cells remaining Trypan blue viable
experimentalEndpoint: viability

stdin: Suppose we examine the molecule Nc1nc(O)c2ncn(COC(CO)CO)c2n1 ; what viability value has been reported?
stdout: 98 to 100%
